Let's look at some molecules and their measured kd.
Target: Macaca fascicularis PRLR (mfPRLR.mmh; SEQ ID NO:403)
Sequence (as listed by the source): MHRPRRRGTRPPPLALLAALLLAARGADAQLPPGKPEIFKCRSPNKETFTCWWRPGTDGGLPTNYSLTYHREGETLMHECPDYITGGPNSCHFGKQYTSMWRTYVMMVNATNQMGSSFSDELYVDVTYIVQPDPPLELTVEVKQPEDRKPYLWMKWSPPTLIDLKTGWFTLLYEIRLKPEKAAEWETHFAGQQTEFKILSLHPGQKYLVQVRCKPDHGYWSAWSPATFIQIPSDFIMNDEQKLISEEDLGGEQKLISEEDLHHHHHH
Experiment: Surface plasmon resonance (Biacore T200), antibody-capture format
Type: binding
Settings: 25° C., analyte mfPRLR.mmh

- molecule: "H1H6792P: fully human anti-PRLR antibody, human IgG1 Fc; HCVR/LCVR SEQ ID NOs 130/138 (antibody, V domains shown) VH: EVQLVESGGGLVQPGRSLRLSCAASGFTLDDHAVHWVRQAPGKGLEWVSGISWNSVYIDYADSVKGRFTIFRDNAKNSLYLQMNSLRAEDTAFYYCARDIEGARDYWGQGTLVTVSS VL: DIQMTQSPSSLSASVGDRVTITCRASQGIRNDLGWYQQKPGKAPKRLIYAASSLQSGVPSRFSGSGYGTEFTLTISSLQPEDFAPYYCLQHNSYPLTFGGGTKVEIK"
  kd: "0.000983 s⁻¹"
- molecule: "H1H6785P: fully human anti-PRLR antibody, human IgG1 Fc; HCVR/LCVR SEQ ID NOs 98/106 (antibody, V domains shown) VH: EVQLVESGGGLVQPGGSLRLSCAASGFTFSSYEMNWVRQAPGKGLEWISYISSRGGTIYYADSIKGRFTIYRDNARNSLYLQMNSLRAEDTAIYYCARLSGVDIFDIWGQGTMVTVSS VL: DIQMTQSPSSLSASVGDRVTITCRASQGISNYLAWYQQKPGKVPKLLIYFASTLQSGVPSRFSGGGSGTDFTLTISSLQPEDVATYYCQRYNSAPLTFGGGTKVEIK"
  kd: "0.000167 s⁻¹"
- molecule: "H1H6800P: fully human anti-PRLR antibody, human IgG1 Fc; HCVR/LCVR SEQ ID NOs 194/202 (antibody, V domains shown) VH: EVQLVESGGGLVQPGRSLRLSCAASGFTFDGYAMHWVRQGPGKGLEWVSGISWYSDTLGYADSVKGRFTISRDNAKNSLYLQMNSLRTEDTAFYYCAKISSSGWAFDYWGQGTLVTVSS VL: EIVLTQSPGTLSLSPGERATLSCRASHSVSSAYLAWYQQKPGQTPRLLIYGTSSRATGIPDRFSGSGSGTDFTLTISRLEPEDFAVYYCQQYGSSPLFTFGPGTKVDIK"
  kd: "0.00038 s⁻¹"
